# credit: the RNAGym collection of RNA variant scans (doi:10.1073/pnas.2313332121)

B1: TPR 5TU (parent)
chain: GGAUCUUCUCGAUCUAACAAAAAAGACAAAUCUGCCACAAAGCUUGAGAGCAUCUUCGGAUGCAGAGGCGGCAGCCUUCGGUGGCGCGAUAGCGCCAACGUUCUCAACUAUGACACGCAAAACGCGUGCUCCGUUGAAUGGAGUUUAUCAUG

Variants of: B1
Assay: polymerase ribozyme fitness, log enrichment relative to wild type (log ratio); higher = more active; in vitro selection for triplet polymerase activity
Variants at the floor of the assay were thinned out.
reported-property: polymerase ribozyme fitness (log ratio)
Answers are plain numbers.

changes | reported-property | meas-value
U13G A40C C96G A119G | polymerase ribozyme fitness (log ratio) | -1.98
A21U A26U G83A A106G | polymerase ribozyme fitness (log ratio) | -3.03
A47C G84A | polymerase ribozyme fitness (log ratio) | -0.485

Could you report polymerase ribozyme fitness (log ratio) for every entry in the following list?
1. C32U U101A
2. A12G U151G
3. U31A A91C C116A
4. U104G G126A
5. C85G A106G
6. C36U G62A C72U
7. C54U C99U
8. U9G A16U G80A G83C

-3.76
-4.06
-3.88
0.207
-2.59
-3.23
-0.322
-4.08
